biological target: Intestinal-type alkaline phosphatase (Homo sapiens) (UniProt P09923); test: human IAP inhibitors, primary screen, biochemical, luminescence, uHTS (AID 2544); conditions: purified IAP, CDP-Star luminescence, 30 min; at 10 µM; active compounds read high;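 further: plate controls were DMSO wells with enzyme for no effect and no-enzyme buffer wells for full effect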
Sequence (P09923 whole entry, looked up): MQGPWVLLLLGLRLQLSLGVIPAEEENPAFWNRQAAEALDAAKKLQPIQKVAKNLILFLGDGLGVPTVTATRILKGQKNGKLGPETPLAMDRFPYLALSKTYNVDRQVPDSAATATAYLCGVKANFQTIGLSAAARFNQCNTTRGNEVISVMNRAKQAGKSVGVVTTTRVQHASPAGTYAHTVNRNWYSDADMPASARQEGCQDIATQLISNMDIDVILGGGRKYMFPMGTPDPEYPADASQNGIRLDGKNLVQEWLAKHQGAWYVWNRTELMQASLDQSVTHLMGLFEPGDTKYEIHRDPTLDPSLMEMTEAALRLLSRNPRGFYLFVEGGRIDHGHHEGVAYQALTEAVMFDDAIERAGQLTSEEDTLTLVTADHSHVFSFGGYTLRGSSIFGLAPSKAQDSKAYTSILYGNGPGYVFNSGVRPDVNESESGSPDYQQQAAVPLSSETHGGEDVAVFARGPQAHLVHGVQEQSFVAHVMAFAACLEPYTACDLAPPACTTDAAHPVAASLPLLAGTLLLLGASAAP
The whole screen tested about 330,000 compounds, of which about 390 (0.12%) were called active. What follows is part of a selection rich in actives, with near analogues and random picks from the rest.
measured_property: inhibition (%)
Express it in %; write the number only.

These recorded examples may help you get a feel for the data.
Kindly note the recorded inhibition for O=C1N=c2ccccc2=C/C1=C\c1c(O)[nH]c(=S)[nH]c1=O , which is -13

Kindly note the recorded inhibition for O=C(OCCN1CCOCC1)C1(c2ccccc2)CCCC1 , which is -11.7

Kindly note the recorded inhibition for Cc1ccc2c(c1)C1CN(C)CCC1N2C(=O)Cn1nnc(-c2ccccc2F)n1 (centres undefined) , which is -5.5

Attention now shifts to the item below.
Kindly note the recorded inhibition for CCN(CC)c1ccc([N+](=O)[O-])c2cccnc12 , which is 26.2
